system: MDA-MB-468 breast adenocarcinoma cells; assay: LC3 lipidation (LC3II) immunoblot; format: cell-based, human; details: Homo sapiens, MDA-MB-468; 24 hours, two independent determinations; read-out: mean EC50 of LC3 lipid conjugation (LC3II induction)
Measurement type: EC50 (µM)
Write it as a number; the unit µM goes unstated.

For the molecule shown here, N=C(Nc1ccc(I)cc1)NC1C2CC3CC(C2)CC1C3 (stereo not shown) , give the reported EC50.
7

* * *

system: MDA-MB-468 cells; test: ER stress / UPR marker immunoblots; assay type: cell-based, human; conditions: Homo sapiens, MDA-MB-468, 24 h, mean of two determinations, read-out: EC50 for induction of ATF4
Measurement type: EC50 (nM)
Write it as a number; the unit nM goes unstated.

For the molecule shown here, N=C(Nc1ccc(I)cc1)NC1C2CC3CC(C2)CC1C3 (stereo not shown) , give the reported EC50.
500
